# assayed.system: Rhodesain (Trypanosoma brucei rhodesiense)
# Sequence (Q95PM0 whole entry): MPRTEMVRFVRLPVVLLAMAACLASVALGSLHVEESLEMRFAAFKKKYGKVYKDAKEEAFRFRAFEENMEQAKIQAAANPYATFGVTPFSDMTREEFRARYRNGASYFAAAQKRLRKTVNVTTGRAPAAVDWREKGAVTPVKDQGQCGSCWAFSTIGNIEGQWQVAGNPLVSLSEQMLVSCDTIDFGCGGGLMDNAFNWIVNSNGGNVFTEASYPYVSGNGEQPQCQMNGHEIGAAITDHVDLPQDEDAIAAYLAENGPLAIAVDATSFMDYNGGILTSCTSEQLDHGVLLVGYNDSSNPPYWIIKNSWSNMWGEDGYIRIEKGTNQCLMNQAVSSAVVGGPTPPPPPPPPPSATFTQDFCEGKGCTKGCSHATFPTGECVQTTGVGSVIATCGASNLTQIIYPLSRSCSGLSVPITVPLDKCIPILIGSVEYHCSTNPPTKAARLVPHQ
property.name: pKi
Answers are plain numbers, as −log10 of the molar value.

input.smiles	property.name	data.value
O=C(CN1C(=O)[C@@H](COC(=O)Nc2ccc(Cl)cc2C(F)(F)F)N=C(c2ccccc2)c2ccccc21)N[C@H]1CC(=O)O[C@@H]1OCc1ccccc1	pKi	6.10

Query: Answer with the recorded pKi of `CC(C)(C)S[C@H]1OC(=O)C[C@@H]1NC(=O)CN1C(=O)[C@@H](COC(=O)Nc2ccc(Cl)cc2C(F)(F)F)N=C(c2ccccc2)c2ccccc21` only.
Result: 6.15

====

# assayed.system: UniProt:Q9N6S8
# Sequence (Q9N6S8 as listed by the source): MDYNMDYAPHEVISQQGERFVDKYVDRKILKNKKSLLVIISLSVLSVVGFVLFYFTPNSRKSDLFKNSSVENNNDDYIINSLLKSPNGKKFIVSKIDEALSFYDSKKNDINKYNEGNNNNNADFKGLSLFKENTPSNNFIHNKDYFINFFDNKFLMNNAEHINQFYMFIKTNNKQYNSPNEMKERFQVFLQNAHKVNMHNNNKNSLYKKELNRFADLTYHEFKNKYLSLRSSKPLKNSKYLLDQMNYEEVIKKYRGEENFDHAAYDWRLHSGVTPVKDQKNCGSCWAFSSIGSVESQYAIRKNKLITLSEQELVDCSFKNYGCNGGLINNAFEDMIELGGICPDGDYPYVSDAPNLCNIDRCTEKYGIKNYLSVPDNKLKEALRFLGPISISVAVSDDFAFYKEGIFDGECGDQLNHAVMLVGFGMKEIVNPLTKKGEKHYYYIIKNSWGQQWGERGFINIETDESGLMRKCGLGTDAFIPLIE
# assay.explanation: Inhibition of Plasmodium falciparum falcipain-2 at 30 uM after 10 to 15 min
property.name: inhibition

input.smiles	inhibition
O=C(CN1C(=O)[C@@H](COC(=O)Nc2ccc(Cl)cc2C(F)(F)F)N=C(c2ccccc2)c2ccccc21)N[C@H]1CC(=O)O[C@@H]1OCc1ccccc1	> 50%

Could I get inhibition for every one of these entries?
1. O=C(CN1C(=O)[C@@H](COC(=O)Nc2ccc(Cl)cc2C(F)(F)F)N=C(c2ccccc2)c2ccccc21)N[C@H]1CC(=O)O[C@H]1OCc1ccccc1
2. CC(C)(C)S[C@H]1OC(=O)C[C@@H]1NC(=O)CN1C(=O)[C@@H](COC(=O)Nc2ccc(Cl)cc2C(F)(F)F)N=C(c2ccccc2)c2ccccc21
3. CC(C)(C)S[C@@H]1OC(=O)C[C@@H]1NC(=O)CN1C(=O)[C@@H](COC(=O)Nc2ccc(Cl)cc2C(F)(F)F)N=C(c2ccccc2)c2ccccc21

Result:
["< 30%", "> 50%", "< 30%"]
